target: Protein kinase C iota type (Homo sapiens) (UniProt P41743); settings: at 1 µM
Sequence (P41743 whole entry): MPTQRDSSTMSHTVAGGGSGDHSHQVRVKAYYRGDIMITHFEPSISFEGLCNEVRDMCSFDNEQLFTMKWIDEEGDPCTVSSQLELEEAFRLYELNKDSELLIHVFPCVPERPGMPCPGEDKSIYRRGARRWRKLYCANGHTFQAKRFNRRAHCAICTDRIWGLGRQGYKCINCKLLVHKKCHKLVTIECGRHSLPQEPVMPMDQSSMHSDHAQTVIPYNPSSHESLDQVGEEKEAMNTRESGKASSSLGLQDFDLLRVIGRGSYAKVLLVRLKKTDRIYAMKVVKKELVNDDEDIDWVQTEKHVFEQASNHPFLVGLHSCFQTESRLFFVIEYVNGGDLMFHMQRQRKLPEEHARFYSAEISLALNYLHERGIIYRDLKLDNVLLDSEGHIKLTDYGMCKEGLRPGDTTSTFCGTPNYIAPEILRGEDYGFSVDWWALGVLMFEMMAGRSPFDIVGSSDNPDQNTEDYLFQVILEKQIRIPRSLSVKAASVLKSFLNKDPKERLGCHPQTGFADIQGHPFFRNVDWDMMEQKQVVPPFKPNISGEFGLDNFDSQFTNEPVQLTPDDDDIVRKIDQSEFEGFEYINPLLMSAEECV
Reported residual activity values for the following compounds.
Give just the numeric value; % need not be written.

Prompt: // query residual activity value for entry NC(=O)c1cccc(-c2cc(Nc3ccc(OC(F)(F)F)cc3)ncn2)c1
Completion: 92

Prompt: // query residual activity value for entry COc1ccc(Cl)cc1NC(=O)Nc1cc(C)nc2ccccc12
Completion: 88

Prompt: // query residual activity value for entry Oc1cccc(-c2nc(N3CCOCC3)c3oc4ncccc4c3n2)c1
Completion: 89

###

biological target: Proto-oncogene tyrosine-protein kinase receptor Ret (Homo sapiens); settings: at 1 µM
residual activity vs 50%: less than gives rule met; not less than gives rule not met.

Field: example entries. Status: answers known.
COc1cc2ncnc(Nc3cccc(Cl)c3)c2cc1OC = rule met
O=C(c1cc2cc(O)ccc2[nH]1)c1cc2cc(O)ccc2[nH]1 = rule met
N#C/C(=C1/Nc2ccccc2S1)c1ccnc(NCCc2cccnc2)n1 = rule not met

Prompt: Is residual activity of O=C(Nc1ccc(Cl)cc1)c1ccccc1NCc1ccncc1 strictly below 50%?
Completion: rule not met

Prompt: Is residual activity of O=C(c1ccccc1)c1ccc(N2CCOCC2)cc1O strictly below 50%?
Completion: rule not met

Prompt: Is residual activity of O=C1NC(=O)C(c2cn(CCCO)c3ncccc23)=C1c1cnccn1 strictly below 50%?
Completion: rule not met

Prompt: Is residual activity of CN(C)S(=O)(=O)c1ccc2c(c1)/C(=C/c1cc3c([nH]1)CCCC3)C(=O)N2 strictly below 50%?
Completion: rule met

Prompt: Is residual activity of O=C1C(Cl)=C(N2C(=O)CCC2=O)C(=O)c2ccccc21 strictly below 50%?
Completion: rule not met

Prompt: Is residual activity of O=C1Cc2c([nH]c3ccc([N+](=O)[O-])cc23)-c2ccccc2N1 strictly below 50%?
Completion: rule not met

Prompt: Is residual activity of NC(=O)Nc1sc(-c2ccc(F)cc2)cc1C(N)=O strictly below 50%?
Completion: rule met

###

target: ALK tyrosine kinase receptor (Homo sapiens) (UniProt Q9UM73); conditions: at 1 µM
Sequence (Q9UM73 19-1620 limits assumed): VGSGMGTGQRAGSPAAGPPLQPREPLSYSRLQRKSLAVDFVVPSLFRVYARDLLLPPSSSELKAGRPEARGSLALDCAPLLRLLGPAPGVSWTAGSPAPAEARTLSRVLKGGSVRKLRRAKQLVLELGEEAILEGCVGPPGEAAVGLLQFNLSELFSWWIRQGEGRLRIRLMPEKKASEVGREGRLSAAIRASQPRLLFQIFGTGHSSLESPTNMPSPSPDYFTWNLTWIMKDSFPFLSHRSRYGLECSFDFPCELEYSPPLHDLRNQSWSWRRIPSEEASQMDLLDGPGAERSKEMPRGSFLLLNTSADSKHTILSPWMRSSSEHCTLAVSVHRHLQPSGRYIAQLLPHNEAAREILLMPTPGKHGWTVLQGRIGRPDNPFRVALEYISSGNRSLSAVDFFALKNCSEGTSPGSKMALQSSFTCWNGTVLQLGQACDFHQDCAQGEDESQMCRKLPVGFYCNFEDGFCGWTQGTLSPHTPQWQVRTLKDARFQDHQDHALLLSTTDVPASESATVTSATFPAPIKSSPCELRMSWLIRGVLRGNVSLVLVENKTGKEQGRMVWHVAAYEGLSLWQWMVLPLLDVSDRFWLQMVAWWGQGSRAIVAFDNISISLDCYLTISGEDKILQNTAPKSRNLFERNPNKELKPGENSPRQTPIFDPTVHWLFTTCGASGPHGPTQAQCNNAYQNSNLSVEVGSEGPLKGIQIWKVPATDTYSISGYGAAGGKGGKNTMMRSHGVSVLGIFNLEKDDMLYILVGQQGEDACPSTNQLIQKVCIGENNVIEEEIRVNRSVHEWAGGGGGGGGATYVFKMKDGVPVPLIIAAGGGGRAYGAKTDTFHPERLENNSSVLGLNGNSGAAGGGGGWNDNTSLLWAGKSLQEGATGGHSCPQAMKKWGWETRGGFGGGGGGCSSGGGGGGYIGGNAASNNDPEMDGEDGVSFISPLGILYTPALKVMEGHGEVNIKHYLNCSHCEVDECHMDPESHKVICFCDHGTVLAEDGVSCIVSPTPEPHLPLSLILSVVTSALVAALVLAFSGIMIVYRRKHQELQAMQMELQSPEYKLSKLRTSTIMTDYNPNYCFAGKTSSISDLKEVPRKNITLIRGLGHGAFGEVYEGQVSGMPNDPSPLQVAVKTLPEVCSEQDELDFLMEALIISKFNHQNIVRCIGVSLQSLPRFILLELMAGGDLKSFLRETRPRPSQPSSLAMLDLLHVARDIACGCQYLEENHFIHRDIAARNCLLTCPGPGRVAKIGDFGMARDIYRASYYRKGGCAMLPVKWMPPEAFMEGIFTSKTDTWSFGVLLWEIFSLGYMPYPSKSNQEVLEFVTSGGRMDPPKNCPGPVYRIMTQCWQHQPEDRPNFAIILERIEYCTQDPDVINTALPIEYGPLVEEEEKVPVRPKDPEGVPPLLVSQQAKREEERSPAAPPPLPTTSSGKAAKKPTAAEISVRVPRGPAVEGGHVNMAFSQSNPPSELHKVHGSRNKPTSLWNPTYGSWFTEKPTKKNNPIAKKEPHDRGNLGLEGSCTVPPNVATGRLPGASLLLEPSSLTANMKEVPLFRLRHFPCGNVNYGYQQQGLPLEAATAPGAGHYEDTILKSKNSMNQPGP
PROPERTY_NAME: residual activity (%)
Give just the numeric value; % need not be written.

O=c1cc(N2CCNCC2)oc2c(-c3ccccc3)cccc12 = 69

Prompt: // query residual activity value for entry COc1ccc(COc2ccc(Cc3cnc(N)nc3N)cc2OC)cc1
Completion: 74

Prompt: // query residual activity value for entry O=C1Nc2ccccc2/C1=C\c1c(Cl)[nH]c2ccccc12
Completion: 81

Prompt: // query residual activity value for entry Nc1nc(Nc2ccc(S(N)(=O)=O)cc2)nn1C(=O)c1c(F)cccc1F
Completion: 77

Prompt: // query residual activity value for entry N#Cc1c(NC(=O)c2cccc3ccccc23)sc2c1CCCC2
Completion: 80

Prompt: // query residual activity value for entry CC(C)(C)n1nc(Cc2cccc3ccccc23)c2c(N)ncnc21
Completion: 89

###

Reported residual activity values for the following compounds.
molecular target: Fibroblast growth factor receptor 4 (Homo sapiens) (UniProt P22455); settings: at 10 µM
Sequence (P22455 22-802 limits assumed): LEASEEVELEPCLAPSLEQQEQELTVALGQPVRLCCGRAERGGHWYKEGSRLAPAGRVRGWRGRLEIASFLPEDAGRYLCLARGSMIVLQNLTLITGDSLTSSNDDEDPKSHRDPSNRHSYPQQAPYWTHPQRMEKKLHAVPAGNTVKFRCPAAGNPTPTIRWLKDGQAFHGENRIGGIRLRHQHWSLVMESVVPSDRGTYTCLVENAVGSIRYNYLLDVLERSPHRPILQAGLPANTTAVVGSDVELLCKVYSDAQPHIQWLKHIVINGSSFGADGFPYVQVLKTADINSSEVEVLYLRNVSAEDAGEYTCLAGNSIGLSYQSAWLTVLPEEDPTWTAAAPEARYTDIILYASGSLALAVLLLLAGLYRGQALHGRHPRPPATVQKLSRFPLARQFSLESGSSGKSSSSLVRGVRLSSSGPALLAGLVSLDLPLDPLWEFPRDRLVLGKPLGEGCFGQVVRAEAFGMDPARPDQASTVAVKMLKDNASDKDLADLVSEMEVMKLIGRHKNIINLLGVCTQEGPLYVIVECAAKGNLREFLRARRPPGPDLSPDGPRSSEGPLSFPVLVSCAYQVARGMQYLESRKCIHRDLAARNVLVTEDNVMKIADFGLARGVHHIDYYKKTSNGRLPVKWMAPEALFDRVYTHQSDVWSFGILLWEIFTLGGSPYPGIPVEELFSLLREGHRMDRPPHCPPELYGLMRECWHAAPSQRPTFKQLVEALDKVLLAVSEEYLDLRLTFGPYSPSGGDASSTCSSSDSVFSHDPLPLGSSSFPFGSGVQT
Give just the numeric value; % need not be written.

CCCCc1c(-c2ccc(OC)cc2)[nH]c2nccnc12 = 91
CC(C)[C@H](CO)Nc1nc(Nc2cc(N)cc(Cl)c2)c2ncn(C(C)C)c2n1 = 88
O=C1C(Cl)=C(N2C(=O)CCC2=O)C(=O)c2ccccc21 = 91

Kindly review the next compound as well.
Prompt: // query residual activity value for entry NC(=O)Nc1sc(-c2ccc(F)cc2)cc1C(N)=O
Completion: 91

###

target: Dual specificity protein kinase CLK3 (Homo sapiens) (UniProt P49761); settings: at 1 µM
Sequence (P49761 whole entry, looked up): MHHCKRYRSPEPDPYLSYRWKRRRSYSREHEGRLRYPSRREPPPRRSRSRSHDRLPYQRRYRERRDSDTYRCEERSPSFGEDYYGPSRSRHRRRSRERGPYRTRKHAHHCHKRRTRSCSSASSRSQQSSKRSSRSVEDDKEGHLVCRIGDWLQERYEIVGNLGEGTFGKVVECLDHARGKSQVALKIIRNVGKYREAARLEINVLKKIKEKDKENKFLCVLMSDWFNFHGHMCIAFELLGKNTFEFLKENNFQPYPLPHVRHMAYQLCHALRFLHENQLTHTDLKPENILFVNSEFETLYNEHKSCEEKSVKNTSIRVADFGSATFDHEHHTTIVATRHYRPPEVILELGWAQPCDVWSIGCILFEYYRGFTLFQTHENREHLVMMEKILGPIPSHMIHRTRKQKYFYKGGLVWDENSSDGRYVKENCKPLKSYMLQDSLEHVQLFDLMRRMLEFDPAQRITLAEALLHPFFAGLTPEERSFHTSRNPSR
Reported residual activity values for the following compounds.
Give just the numeric value; % need not be written.

Worked examples, 6 compounds total:
NC(=O)c1ccc(-c2nc(-c3ccc4c(c3)OCCO4)c(-c3ccccn3)[nH]2)cc1 = 81
NCCNc1ncc(C(N)=O)c(Nc2cccc(C(F)(F)F)c2)n1 = 82
CCOC(=O)c1c(C)[nH]c(/C=C2\C(=O)Nc3ccccc32)c1C = 82
O=C1Nc2ccc(Cl)cc2/C1=C/c1cc(Cl)c(O)c(Cl)c1 = 70
Nc1ncnc2c1cnn2-c1ccccc1 = 87
O=C(NC(NC(=S)Nc1ccc(F)c([N+](=O)[O-])c1)C(Cl)(Cl)Cl)C(c1ccccc1)c1ccccc1 (configuration not stated) = 94

Prompt: // query residual activity value for entry O=C(c1ccccc1)c1ccc(N2CCOCC2)cc1O
Completion: 89

Prompt: // query residual activity value for entry O=C(Nc1nc2ccccc2n1CCN1CCOCC1)c1cccc([N+](=O)[O-])c1
Completion: 55

Prompt: // query residual activity value for entry O=S(=O)(NCCNC/C=C/c1ccc(Br)cc1)c1cccc2cnccc12
Completion: 79

Prompt: // query residual activity value for entry CSc1nc(-c2ccc(F)cc2)c(-c2ccnc(NC(C)c3ccccc3)c2)[nH]1 (configuration not stated)
Completion: 84

Prompt: // query residual activity value for entry Cc1cc(C)c(/C=C2\C(=O)Nc3ccccc32)[nH]1
Completion: 80

Prompt: // query residual activity value for entry CC(C)N(CCC(=O)c1ccc2ccccc2c1)Cc1ccccc1
Completion: 74

###

target: Casein kinase I isoform delta (Homo sapiens); details: at 10 µM
Description: Millipore: Percentage of residual kinase activity of CSNK1D at 10uM relative to control. Control inhibitor: Jnk Inhibitor II at 100.0uM. Buffer: 8 mM MOPS pH 7.0, 0.2 mM EDTA
Given measured residual activity, output condition met if it is greater than or equal to 10% and condition not met if not.

Field: example entries. Status: answers known.
O=C(O)/C=C/c1cc(Br)c(Br)c(Br)c1Br = condition met
CCN(CC)CCNC(=O)c1c(C)[nH]c(/C=C2\C(=O)Nc3ccc(Cl)cc32)c1C = condition not met
O=C(c1ccccc1)c1ccc(N2CCOCC2)cc1O = condition met
O=c1c(-c2ccc(F)cc2)c(-c2ccncc2)[nH]n1-c1ccc(Cl)cc1 = condition not met
CN(C)S(=O)(=O)c1ccc2c(c1)/C(=C/c1cc3c([nH]1)CCCC3)C(=O)N2 = condition met
c1ccc(-c2cnc(Nc3ccc(OCCN4CCCC4)cc3)s2)cc1 = condition met
Nc1ncnc2c1c(-c1ccc(Oc3ccccc3)cc1)cn2C1CCCC1 = condition not met
O=C1Nc2ccc(Cl)cc2/C1=C/c1cc(Cl)c(O)c(Cl)c1 = condition met

Here is the next item to consider.
Prompt: Reported residual activity at or above 10%? CC(C)(C)n1nc(Cc2cccc3ccccc23)c2c(N)ncnc21
Completion: condition not met

###

Reported residual activity values for the following compounds.
target: Ephrin type-B receptor 3 (Homo sapiens) (UniProt P54753); details: at 10 µM
Sequence (P54753 whole entry): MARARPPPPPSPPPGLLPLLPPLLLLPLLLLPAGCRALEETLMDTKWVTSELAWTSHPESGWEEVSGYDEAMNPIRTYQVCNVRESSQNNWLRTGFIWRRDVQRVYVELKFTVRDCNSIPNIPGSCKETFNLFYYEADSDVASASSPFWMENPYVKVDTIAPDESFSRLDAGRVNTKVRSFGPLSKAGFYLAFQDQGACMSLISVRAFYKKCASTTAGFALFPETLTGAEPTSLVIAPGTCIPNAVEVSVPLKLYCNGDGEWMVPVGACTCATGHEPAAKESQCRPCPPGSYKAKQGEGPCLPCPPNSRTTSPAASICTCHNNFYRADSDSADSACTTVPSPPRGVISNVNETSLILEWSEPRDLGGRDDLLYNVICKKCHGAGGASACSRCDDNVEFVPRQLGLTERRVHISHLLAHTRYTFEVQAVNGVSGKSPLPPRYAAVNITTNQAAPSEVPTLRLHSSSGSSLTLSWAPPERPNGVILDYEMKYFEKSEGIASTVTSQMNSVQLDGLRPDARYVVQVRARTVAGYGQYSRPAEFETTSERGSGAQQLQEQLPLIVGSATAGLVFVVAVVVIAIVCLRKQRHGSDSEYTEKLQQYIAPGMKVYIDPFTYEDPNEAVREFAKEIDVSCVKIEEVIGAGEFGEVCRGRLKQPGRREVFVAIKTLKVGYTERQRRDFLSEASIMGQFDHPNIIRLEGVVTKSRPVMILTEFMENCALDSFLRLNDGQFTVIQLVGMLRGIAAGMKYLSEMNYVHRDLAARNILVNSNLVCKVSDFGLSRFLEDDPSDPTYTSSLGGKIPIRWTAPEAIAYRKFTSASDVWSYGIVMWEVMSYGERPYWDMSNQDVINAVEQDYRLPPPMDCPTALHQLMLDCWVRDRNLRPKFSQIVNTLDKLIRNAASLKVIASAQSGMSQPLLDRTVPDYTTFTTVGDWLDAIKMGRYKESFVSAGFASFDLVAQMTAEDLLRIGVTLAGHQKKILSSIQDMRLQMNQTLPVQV
Description: Millipore: Percentage of residual kinase activity of EPHB3 at 10uM relative to control. Control inhibitor: PP2 at 30.0uM. Buffer: 8 mM MOPS pH 7.0, 0.2 mM EDTA, 10 mM MnCl2
Give just the numeric value; % need not be written.

CSc1nc(-c2ccc(F)cc2)c(-c2ccnc(NC(C)c3ccccc3)c2)[nH]1 (stereo not drawn) = 80
COc1ccc(CNC(=O)Nc2ncc([N+](=O)[O-])s2)cc1 = 105

Kindly review the next compound as well.
Prompt: // query residual activity value for entry CCN(CC)CCNC(=O)c1c(C)[nH]c(/C=C2\C(=O)Nc3ccc(Cl)cc32)c1C
Completion: 130

###

molecular target: Tyrosine-protein kinase Lyn (Homo sapiens); details: at 10 µM
Reported residual activity values for the following compounds.
Give just the numeric value; % need not be written.

Worked examples, 2 compounds total:
N#C/C(=C1/Nc2ccccc2S1)c1ccnc(NCCc2cccnc2)n1 = 15
CCCCc1c(-c2ccc(OC)cc2)[nH]c2nccnc12 = 11

Prompt: // query residual activity value for entry Oc1cccc(-c2nc(N3CCOCC3)c3oc4ncccc4c3n2)c1
Completion: 57

Prompt: // query residual activity value for entry O=c1cc(N2CCOCC2)oc2c(-c3ccccc3)cccc12
Completion: 74

Prompt: // query residual activity value for entry COc1cc2ncnc(Nc3cccc(Cl)c3)c2cc1OC
Completion: 1

###

Reported residual activity values for the following molecules.
molecular target: Calcium/calmodulin-dependent protein kinase type II subunit gamma (Homo sapiens) (UniProt Q13555); conditions: at 1 µM
Sequence (Q13555 whole entry): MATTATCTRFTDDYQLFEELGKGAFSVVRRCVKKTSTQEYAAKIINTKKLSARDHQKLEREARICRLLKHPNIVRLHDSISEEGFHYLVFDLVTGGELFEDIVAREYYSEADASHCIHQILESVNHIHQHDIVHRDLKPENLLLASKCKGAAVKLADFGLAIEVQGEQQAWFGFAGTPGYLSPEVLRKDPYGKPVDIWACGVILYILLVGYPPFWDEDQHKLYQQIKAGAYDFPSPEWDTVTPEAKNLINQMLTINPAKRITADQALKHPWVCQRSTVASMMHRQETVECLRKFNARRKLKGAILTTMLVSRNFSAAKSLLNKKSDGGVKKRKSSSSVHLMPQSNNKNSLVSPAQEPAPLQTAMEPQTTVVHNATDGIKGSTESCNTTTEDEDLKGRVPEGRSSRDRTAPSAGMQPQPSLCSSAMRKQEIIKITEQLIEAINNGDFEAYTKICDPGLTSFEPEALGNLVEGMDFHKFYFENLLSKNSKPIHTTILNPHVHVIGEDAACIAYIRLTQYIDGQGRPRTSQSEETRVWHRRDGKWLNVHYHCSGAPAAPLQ
Give just the numeric value; % need not be written.

Worked examples, 5 molecules total:
Nc1nc(Nc2ccc(S(N)(=O)=O)cc2)nn1C(=O)c1c(F)cccc1F = 73
CSc1nc(-c2ccc(F)cc2)c(-c2ccnc(NC(C)c3ccccc3)c2)[nH]1 (configuration not stated) = 98
O=C(O)/C=C/c1cc(Br)c(Br)c(Br)c1Br = 98
c1ccc(-c2cnc(Nc3ccc(OCCN4CCCC4)cc3)s2)cc1 = 19
COc1cc2c(cc1OC)-c1n[nH]c(Nc3cccc(F)c3)c1C2 = 99

Prompt: // query residual activity value for entry CC(C)[C@H](CO)Nc1nc(Nc2cc(N)cc(Cl)c2)c2ncn(C(C)C)c2n1
Completion: 76

Prompt: // query residual activity value for entry O=S(=O)(NCCNC/C=C/c1ccc(Br)cc1)c1cccc2cnccc12
Completion: 100

###

Reported residual activity values for the following molecules.
biological target: Ephrin type-B receptor 1 (Homo sapiens); conditions: at 10 µM
Give just the numeric value; % need not be written.

Worked examples, 4 molecules total:
O=C1Cc2c([nH]c3ccc(Br)cc23)-c2ccccc2N1 = 76
O=C1NC(=O)C(c2c[nH]c3ccccc23)=C1c1c[nH]c2ccccc12 = 39
COc1ccc2c(c1)c(C1=C(c3c[nH]c4ccccc34)C(=O)NC1=O)cn2CCCN(C)C = 53
Nc1nc(Nc2ccc(S(N)(=O)=O)cc2)nn1C(=O)c1c(F)cccc1F = 14

Kindly review the next molecule as well.
Prompt: // query residual activity value for entry NC(=O)Nc1sc(-c2ccc(F)cc2)cc1C(N)=O
Completion: 0
